- Tested on: 519858-162-T-J1-PDC complex spheroid viability
- test method notes: Anticancer human tumor 519858-162-T-J1-PDC patient-derived colon adenocarcinoma cell line growth inhibition [GQUAD]
- applied conditions: second compound 1 µM; first compound 0.316 µM; stronger effect = lower value
- Excerpt: DNA G-quadruplex Stabilizer Agents in Combinations in Complex Spheroids A high-throughput screen of multi-cell type tumor spheroids was designed to identify active combinations of DNA G-quadruplex stabilizer agents and targeted small molecules. […] Compounds. […] If the clinical Cmax for an agent had not been determined, the highest concentration tested was 10 microM. […]
reported metric: viability, T/C (%)
Numbers only, in %.

Example entries begin here.
compound: COc1cccc2c1C(=O)c1c(O)c3c(c(O)c1C2=O)CC(O)(C(=O)CO)CC3OC1CC(N)C(O)C(C)O1 (stereo not given) + CN(C)c1ccc(Nc2c3ccc(NC(=O)CCN4CCCC4)cc3nc3cc(NC(=O)CCN4CCCC4)ccc23)cc1
reported metric: viability, T/C
measured result: 56.4
//
compound: CC1COCCN1c1cc(C2(S(C)(=N)=O)CC2)nc(-c2ccnc3[nH]ccc23)n1 (stereo not given) + CN(C)c1ccc(Nc2c3ccc(NC(=O)CCN4CCCC4)cc3nc3cc(NC(=O)CCN4CCCC4)ccc23)cc1
reported metric: viability, T/C
measured result: 90.8

Need viability, T/C for each of these compounds.
1. Cn1ncnc1[C@H]1c2n[nH]c(=O)c3cc(F)cc(c23)N[C@@H]1c1ccc(F)cc1 + CN(C)c1ccc(Nc2c3ccc(NC(=O)CCN4CCCC4)cc3nc3cc(NC(=O)CCN4CCCC4)ccc23)cc1
2. COc1ncnc(C2CC2)c1-c1ncc2cnn(Cc3ccc(-c4nc(C(F)(F)F)cn4C(C)C)cc3)c2n1 + Cc1cnc(CNC(=O)c2c(=O)c3ccc(N4CCCN(C)CC4)nc3n3c2sc2ccccc23)cn1
3. CC1COCCN1c1cc(C2(O)CC3CCC(C2)O3)c2cnn(-c3ccn[nH]3)c2n1 (stereo not given) + CN(C)c1ccc(Nc2c3ccc(NC(=O)CCN4CCCC4)cc3nc3cc(NC(=O)CCN4CCCC4)ccc23)cc1

Response:
119
47.6
99.8

----------
- Test system: 519858-162-T-J1-PDC complex spheroid viability
- test method notes: Anticancer human tumor 519858-162-T-J1-PDC cell line growth inhibition [GQUAD];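 further: spheroids exposed to compounds for 7 days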
- applied conditions: curve of first compound; second compound 1 µM
Give log10 of IC50 for every item shown.
Each number you see is log10 of IC50, and the unit inside the log is µM.

Need log10 of IC50 for each of these compounds.
1. CC1COCCN1c1cc(-c2ccnn2C)c2ccnc(-c3ccn[nH]3)c2n1 (stereo not given) + CN(C)c1ccc(Nc2c3ccc(NC(=O)CCN4CCCC4)cc3nc3cc(NC(=O)CCN4CCCC4)ccc23)cc1
2. CC(C)(O)C1CCC(Nc2ccc3ncc(-c4cccc(C(F)(F)F)c4)n3n2)CC1 (stereo not given) + Cc1cnc(CNC(=O)c2c(=O)c3ccc(N4CCCN(C)CC4)nc3n3c2sc2ccccc23)cn1
3. C=CC(=O)N1CCN(c2nc(=O)n(-c3c(C)ccnc3C(C)C)c3nc(-c4c(O)cccc4F)c(F)cc23)C(C)C1 (stereo not given) + Cc1cnc(CNC(=O)c2c(=O)c3ccc(N4CCCN(C)CC4)nc3n3c2sc2ccccc23)cn1
4. COc1ccc([C@@H](O)c2cc(-c3ncnc4cc(N5CCOCC5)ccc34)c(F)cc2Cl)nn1 + Cc1cnc(CNC(=O)c2c(=O)c3ccc(N4CCCN(C)CC4)nc3n3c2sc2ccccc23)cn1
5. Cc1cccc(N(C)C(=O)C2C(O)CCN2c2nc(C)cc(C(F)(F)F)c2C#N)c1 (stereo not given) + Cc1cnc(CNC(=O)c2c(=O)c3ccc(N4CCCN(C)CC4)nc3n3c2sc2ccccc23)cn1

Response:
0.68
-0.58
0.39
0.96
0.30

----------
Give viability, T/C for every item shown.
- Tested on: 519858-162-T-J1-PDC complex spheroid viability
- test method notes: Anticancer human tumor 519858-162-T-J1-PDC cell line growth inhibition [GQUAD];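 further: spheroids exposed to compounds for 7 days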;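 on viability, T/C: 100% = DMSO vehicle control viability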
- applied conditions: second compound 10 µM; first compound 3.16 µM; stronger effect = lower value
Answers are plain numbers, in %.

Example entries begin here.
compound: CC1COCCN1c1cc(-c2ccnn2C)c2ccnc(-c3ccn[nH]3)c2n1 (stereo not given) + Cc1cnc(CNC(=O)c2c(=O)c3ccc(N4CCCN(C)CC4)nc3n3c2sc2ccccc23)cn1
measured result: 28.8
//
compound: C#Cc1c(F)ccc2cc(O)cc(-c3ncc4c(N5CC6CCC(C5)N6)nc(OCC56CCCN5CC(F)C6)nc4c3F)c12 (stereo not given) + CN(C)c1ccc(Nc2c3ccc(NC(=O)CCN4CCCC4)cc3nc3cc(NC(=O)CCN4CCCC4)ccc23)cc1
measured result: 89.3
//
compound: C#Cc1c(F)ccc2cc(O)cc(-c3ncc4c(N5CC6CCC(C5)N6)nc(OCC56CCCN5CC(F)C6)nc4c3F)c12 (stereo not given) + Cc1cnc(CNC(=O)c2c(=O)c3ccc(N4CCCN(C)CC4)nc3n3c2sc2ccccc23)cn1
measured result: 52.4
//
compound: O=C(c1cc(Cc2n[nH]c(=O)c3ccccc23)ccc1F)N1CCN(C(=O)C2CC2)CC1 + Cc1[nH]c2ccc(F)cc2c1-c1nc2c3cccnc3c3ncccc3c2[nH]1
measured result: 51.8
//
compound: CCCS(=O)(=O)Nc1ccc(F)c(C(=O)c2c[nH]c3ncc(-c4ccc(Cl)cc4)cc23)c1F + Cc1[nH]c2ccc(F)cc2c1-c1nc2c3cccnc3c3ncccc3c2[nH]1
measured result: 105

Need viability, T/C for each of these compounds.
1. COc1cccc2c1C(=O)c1c(O)c3c(c(O)c1C2=O)CC(O)(C(=O)CO)CC3OC1CC(N)C(O)C(C)O1 (stereo not given) + Cc1cnc(CNC(=O)c2c(=O)c3ccc(N4CCCN(C)CC4)nc3n3c2sc2ccccc23)cn1
2. C=CCn1c(=O)c2cnc(Nc3ccc(N4CCN(C)CC4)cc3)nc2n1-c1cccc(C(C)(C)O)n1 + CN(C)c1ccc(Nc2c3ccc(NC(=O)CCN4CCCC4)cc3nc3cc(NC(=O)CCN4CCCC4)ccc23)cc1

Response:
1: 41.4; 2: 89.3

Need viability, T/C for each of these compounds.
1. CC1COCCN1c1cc(C2(S(C)(=N)=O)CC2)nc(-c2ccnc3[nH]ccc23)n1 (stereo not given) + CN(C)c1ccc(Nc2c3ccc(NC(=O)CCN4CCCC4)cc3nc3cc(NC(=O)CCN4CCCC4)ccc23)cc1
2. CC(=O)O[C@H]1C(=O)[C@@]2(C)[C@H]([C@H](OC(=O)c3ccccc3)[C@]3(O)C[C@H](OC(=O)[C@H](O)[C@@H](NC(=O)c4ccccc4)c4ccccc4)C(C)=C1C3(C)C)[C@]1(OC(C)=O)CO[C@@H]1C[C@@H]2O + CN(C)c1ccc(Nc2c3ccc(NC(=O)CCN4CCCC4)cc3nc3cc(NC(=O)CCN4CCCC4)ccc23)cc1
3. COc1ccc([C@@H](O)c2cc(-c3ncnc4cc(N5CCOCC5)ccc34)c(F)cc2Cl)nn1 + Cc1cnc(CNC(=O)c2c(=O)c3ccc(N4CCCN(C)CC4)nc3n3c2sc2ccccc23)cn1

Response:
1. 82.5
2. 80.3
3. 47.7

----------
- Tested on: 519858-162-T-J1-PDC complex spheroid viability
- test method notes: Anticancer human tumor 519858-162-T-J1-PDC cell line growth inhibition [GQUAD];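 further: spheroids exposed to compounds for 7 days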;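 on viability, T/C: 100% = DMSO vehicle control viability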
- applied conditions: second compound 3.16 µM; first compound 3.16 µM; stronger effect = lower value
Note that class boundaries on viability, T/C are b0: < 30%; b1: ≥ 30% and < 70%; b2: ≥ 70%

compound: C=CC(=O)N1CCN(c2nc(=O)n(-c3c(C)ccnc3C(C)C)c3nc(-c4c(O)cccc4F)c(F)cc23)C(C)C1 (stereo unspecified) + Cc1cnc(CNC(=O)c2c(=O)c3ccc(N4CCCN(C)CC4)nc3n3c2sc2ccccc23)cn1
class assignment: b1

Consider the record given below.
Prompt: Class for O=C(c1cc(Cc2n[nH]c(=O)c3ccccc23)ccc1F)N1CCN(C(=O)C2CC2)CC1 + Cc1cnc(CNC(=O)c2c(=O)c3ccc(N4CCCN(C)CC4)nc3n3c2sc2ccccc23)cn1 ?
Response: b1

----------
- Tested on: 519858-162-T-J1-PDC complex spheroid viability
- test method notes: Anticancer human tumor 519858-162-T-J1-PDC cell line growth inhibition [GQUAD];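 further: spheroids exposed to compounds for 7 days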;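 on viability, T/C: 100% = DMSO vehicle control viability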
- applied conditions: second compound 1 µM; first compound 0.00999 µM; stronger effect = lower value
- From the text: DNA G-quadruplex Stabilizer Agents in Combinations in Complex Spheroids A high-throughput screen of multi-cell type tumor spheroids was designed to identify active combinations of DNA G-quadruplex stabilizer agents and targeted small molecules. […] Compounds. […] If the clinical Cmax for an agent had not been determined, the highest concentration tested was 10 microM. […]
reported metric: viability, T/C

Example entries begin here.
molecule: CC[C@@]1(O)C(=O)OCc2c1cc1n(c2=O)Cc2cc3c(CN(C)C)c(O)ccc3nc2-1 + Cc1[nH]c2ccc(F)cc2c1-c1nc2c3cccnc3c3ncccc3c2[nH]1
measured result: 85.1%
//
molecule: Cc1[nH]c2ccccc2c1CCNCc1ccc(/C=C/C(=O)NO)cc1 + Cc1[nH]c2ccc(F)cc2c1-c1nc2c3cccnc3c3ncccc3c2[nH]1
measured result: 86.5%
//
molecule: Cn1ncnc1[C@H]1c2n[nH]c(=O)c3cc(F)cc(c23)N[C@@H]1c1ccc(F)cc1 + CN(C)c1ccc(Nc2c3ccc(NC(=O)CCN4CCCC4)cc3nc3cc(NC(=O)CCN4CCCC4)ccc23)cc1
measured result: 82.2%

Need viability, T/C for each of these molecules.
1. Cn1ncnc1[C@H]1c2n[nH]c(=O)c3cc(F)cc(c23)N[C@@H]1c1ccc(F)cc1 + Cc1cnc(CNC(=O)c2c(=O)c3ccc(N4CCCN(C)CC4)nc3n3c2sc2ccccc23)cn1
2. CCc1c2c(nc3ccc(O)cc13)-c1cc3c(c(=O)n1C2)COC(=O)[C@]3(O)CC + Cc1[nH]c2ccc(F)cc2c1-c1nc2c3cccnc3c3ncccc3c2[nH]1
3. CC[C@@]1(O)C(=O)OCc2c1cc1n(c2=O)Cc2cc3c(CN(C)C)c(O)ccc3nc2-1 + Cc1cnc(CNC(=O)c2c(=O)c3ccc(N4CCCN(C)CC4)nc3n3c2sc2ccccc23)cn1
4. CCc1c2c(nc3ccc(O)cc13)-c1cc3c(c(=O)n1C2)COC(=O)[C@]3(O)CC + Cc1cnc(CNC(=O)c2c(=O)c3ccc(N4CCCN(C)CC4)nc3n3c2sc2ccccc23)cn1

Response:
["60.9%", "78.2%", "72.8%", "72.2%"]
